Each recorded value in this set is attributed to patent US8198273B2.

EXPERIMENTAL_SYSTEM: CYP2C19 (Homo sapiens)
Sequence (P33261 whole entry): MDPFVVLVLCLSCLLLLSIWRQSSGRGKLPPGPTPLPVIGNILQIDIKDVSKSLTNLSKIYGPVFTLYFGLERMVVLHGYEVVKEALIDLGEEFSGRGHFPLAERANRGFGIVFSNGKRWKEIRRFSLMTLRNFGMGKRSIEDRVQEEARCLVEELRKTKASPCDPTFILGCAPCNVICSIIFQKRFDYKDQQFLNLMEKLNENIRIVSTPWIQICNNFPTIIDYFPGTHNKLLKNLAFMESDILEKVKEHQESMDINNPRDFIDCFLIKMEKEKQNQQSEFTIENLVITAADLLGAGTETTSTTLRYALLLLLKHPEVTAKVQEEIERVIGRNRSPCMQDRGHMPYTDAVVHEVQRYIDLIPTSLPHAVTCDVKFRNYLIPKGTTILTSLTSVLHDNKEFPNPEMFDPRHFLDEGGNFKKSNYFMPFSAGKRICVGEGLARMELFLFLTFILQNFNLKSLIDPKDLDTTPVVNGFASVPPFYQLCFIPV
EXPERIMENTAL_DETAILS: CYP2C19 inhibition (fluorescent substrate)
Type: in vitro ADME
CONDITION_INFO: CYP2C19, CEC substrate; read-out: Cyp IC50 2C19
We begin with a simple list: items and their reported IC50.

>>> measured_result("COc1ccnc2[nH]cc(C(=O)c3c(F)ccc(NS(=O)(=O)c4ccccc4F)c3F)c12 [P-2021]")
"> 10 µM"
>>> measured_result("N#Cc1cnc2[nH]cc(C(=O)c3cccc(NS(=O)(=O)c4cc(F)ccc4F)c3F)c2c1 [P-2052]")
"> 10 µM"

Provide measured IC50 value, entry: N#Cc1cnc2[nH]cc(C(=O)c3c(F)ccc(NS(=O)(=O)c4cccnc4)c3F)c2c1 [P-2072]
> 10 µM

Provide measured IC50 value, entry: CCCS(=O)(=O)Nc1ccc(F)c(C(=O)c2c[nH]c3ncc(-c4ccc(OCCN5CCCC5)nc4)cc23)c1F [P-2233]
5 to 10 µM

Provide measured IC50 value, entry: COc1ncc(-c2cnc3[nH]cc(C(=O)c4c(F)ccc(NS(=O)(=O)c5ccccc5F)c4F)c3c2)cn1 [P-2041]
> 10 µM

Provide measured IC50 value, entry: CCCS(=O)(=O)Nc1ccc(F)c(C(=O)c2c[nH]c3ncc(-c4cnc(N5CCOCC5)nc4)cc23)c1F [P-2197]
> 10 µM

Provide measured IC50 value, entry: CCCS(=O)(=O)Nc1ccc(F)c(C(=O)c2c[nH]c3ncc(-c4ccc(N)nc4)cc23)c1F [P-2214]
5 to 10 µM

Provide measured IC50 value, entry: CCCS(=O)(=O)Nc1ccc(F)c(C(=O)c2c[nH]c3ncc(-c4cnc(N5CCCC5)nc4)cc23)c1F [P-2219]
< 5 µM
